molecular target: recombinant human GST-SYK (Homo sapiens, UniProt P43405); construct: purchased Carna Biosciences 08-176; experiment: Homogeneous Time-Resolved Fluorescence (HTRF) assay for the recombinant human Syk enzyme; type: biochemical; conditions: 5 pM GST-SYK, 25 μM ATP, 10-dose titration, read-out: rhSYK Activity
Entries and their measured IC50 follow.

Solved cases below.
C[C@H](N)CNc1cc(Nc2cc(-c3cnn(C)c3)cc(-c3cnn(C)c3)n2)c(C(N)=O)cn1; < 10 nM
Cc1cc(C)nc(Nc2cc(NC[C@H](C)N)ncc2C(N)=O)c1; 10 to 100 nM
CCC(N)CNc1cc(Nc2cccc(C)n2)c(C(N)=O)cn1 (centres unmarked); 100 to 1000 nM

Documented IC50 of `NC(=O)c1cnc(N[C@@H]2CCCC[C@@H]2N)cc1Nc1cccc(-n2nccn2)n1` : < 10 nM

Documented IC50 of `Cc1cccc(Nc2cc(N[C@@H]3CCCC[C@@H]3N)ncc2C(N)=O)n1` : 10 to 100 nM

Documented IC50 of Cc1cccc(Nc2cc(NCC(N)C3CC3)ncc2C(N)=O)n1 (racemic) : 100 to 1000 nM

Documented IC50 of `Cc1cc(C)nc(Nc2cc(NCC3(N)CCOCC3)ncc2C(N)=O)c1` : 1000 to 10000 nM

Documented IC50 of `Cc1cc(C)nc(Nc2cc(N[C@@H]3[C@H](N)CCCC3(F)F)ncc2C(N)=O)c1` : 100 to 1000 nM

* * *

biological target: recombinant human GST-SYK (Homo sapiens, UniProt P43405); construct: purchased Carna Biosciences 08-176; assay: Homogeneous Time-Resolved Fluorescence (HTRF) assay for the recombinant human Syk enzyme; type: biochemical; conditions: 5 pM GST-SYK, 25 μM ATP, 10-dose titration, read-out: rhSYK Activity
pIC50: −log10 of the molar value.
Entries and their measured pIC50 follow.

CCCC(N)CNc1cc(Nc2cccc(C)n2)c(C(N)=O)cn1 (racemic); 7.00 to 8.00

Here is the next item to consider.
Documented pIC50 of `Cc1nc(Nc2cc(N[C@@H]3CCCC[C@@H]3N)ncc2C(N)=O)ccc1F` : 7.00 to 8.00

* * *

biological target: recombinant human GST-SYK (Homo sapiens); construct: purchased Carna Biosciences 08-176; assay: Homogeneous Time-Resolved Fluorescence (HTRF) assay for the recombinant human Syk enzyme; format: biochemical; conditions: 5 pM GST-SYK, 25 μM ATP, 10-dose titration, read-out: IC50
pIC50: −log10 of the molar value.
Assay Endpoint: pIC50

Solved cases below.
NC(=O)c1cnc(N[C@@H]2CCCC[C@@H]2N)cc1Nc1ccc2ccccc2n1 [Example 1.6]; 8.24
Cc1cccc(Nc2cc(N[C@@H]3CCCC[C@@H]3N)ncc2C(N)=O)n1 [Example 1.2]; 8.35
NC(=O)c1cnc(N[C@@H]2CCCC[C@@H]2N)cc1Nc1cccc(C(F)(F)F)n1 [Example 1.1]; 8.46
Cc1cc(C)nc(Nc2cc(N[C@@H]3[C@H](N)CCCC3(F)F)ncc2C(N)=O)c1 [Example 3.2]; 6.29
Cc1cc(C)nc(Nc2cc(NC(C)CN)ncc2C(N)=O)c1 (racemic) [Example 2.10]; 5.49
Cc1cccc(Nc2cc(NCCN)ncc2C(N)=O)n1 [Example 1.3]; 6.77

I = Cc1cc(C)nc(Nc2cc(NCC(N)C(F)(F)F)ncc2C(N)=O)c1 (racemic) [Example 2.3]
II = Cc1nc(Nc2cc(NCCN)ncc2C(N)=O)ccc1Br [Example 2.13]
Problem: Please indicate which item has the smaller measured pIC50: I versus II Reply with the label of the item you choose.
Result: I
